# assay.summary: The drug is tested on Z-001 corresponding to mouse gut metagenome with ENA study accession number: PRJEB37062 and ENA sample accession number: ERS12561801 for biotransformation under anaerobic condition. The drug concentrations were measured over 9 timepoints collected between 0 and 24 hours of incubation by liquid-chromatography-coupled mass spectrometry (LC–MS); also: call rule not given here
# reported.conditions: 2 µM
readout.kind: Bacterial Biotransformation

Some entries whose results are on file:
Name the recorded Bacterial Biotransformation of the compound listed here: COC1=CC(=O)C[C@@H](C)[C@]12Oc1c(Cl)c(OC)cc(OC)c1C2=O [GRISEOFULVIN]
Compound metabolized

Name the recorded Bacterial Biotransformation of the compound listed here: CC(CN(C)C)CN1c2ccccc2CCc2ccccc21.O=C(O)/C=C\C(=O)O (stereo not drawn) [TRIMIPRAMINE MALEATE]
Compound NOT metabolized

Name the recorded Bacterial Biotransformation of the compound listed here: COc1cc2nc(N(C)CCCNC(=O)C3CCCO3)nc(N)c2cc1OC (stereo not drawn) [ALFUZOSIN]
Compound metabolized

Name the recorded Bacterial Biotransformation of the compound listed here: CN1C(=O)CC(C)(c2ccccc2)C1=O (stereo not drawn) [METHSUXIMIDE]
Compound NOT metabolized

Name the recorded Bacterial Biotransformation of the compound listed here: CCN(CC)C(=O)/C(C#N)=C/c1cc(O)c(O)c([N+](=O)[O-])c1 [ENTACAPONE]
Compound metabolized

Name the recorded Bacterial Biotransformation of the compound listed here: CN(C)CC(c1ccc(O)cc1)C1(O)CCCCC1.O=C(O)CCC(=O)O (stereo not drawn) [DESVENLAFAXINE SUCCINATE]
Compound NOT metabolized

Name the recorded Bacterial Biotransformation of the compound listed here: `CCOC(=O)[C@H](CCc1ccccc1)N[C@@H](C)C(=O)N1[C@H](C(=O)O)C[C@@H]2CCC[C@@H]21`
Compound NOT metabolized

Now take the following compound into account.
Name the recorded Bacterial Biotransformation of the compound listed here: C[C@@H]1C[C@H]2[C@@H]3CCC4=CC(=O)C=C[C@]4(C)[C@@]3(F)[C@@H](O)C[C@]2(C)[C@@]1(O)C(=O)CO [DEXAMETHASONE]
Compound NOT metabolized
